Source listed as paper PMC11277439.

Molecular target: recombinant human LPLA2 (hLPLA2) (Homo sapiens, UniProt Q8NCC3)
Construct: gene PLA2G15; recombinant human enzyme from Proteos
Sequence (Q8NCC3 34-412): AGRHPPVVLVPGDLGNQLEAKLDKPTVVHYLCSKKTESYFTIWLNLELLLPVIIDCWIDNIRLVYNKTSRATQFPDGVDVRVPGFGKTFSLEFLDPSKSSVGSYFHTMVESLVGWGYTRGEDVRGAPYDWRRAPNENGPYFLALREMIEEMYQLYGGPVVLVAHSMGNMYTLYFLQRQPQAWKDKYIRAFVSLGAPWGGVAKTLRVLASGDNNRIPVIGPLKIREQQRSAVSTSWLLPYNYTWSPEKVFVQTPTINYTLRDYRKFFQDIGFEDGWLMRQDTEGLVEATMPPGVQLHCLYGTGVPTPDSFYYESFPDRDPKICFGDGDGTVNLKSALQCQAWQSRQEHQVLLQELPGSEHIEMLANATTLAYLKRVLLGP
Assay: oleic acid release from liposomes, HPTLC
Assay type: biochemical
Conditions: DODPC/S,S-(3,3′,C18:1)-BMP liposomes (2.3:1), 50 mM sodium acetate pH 4.5, 37°C, 5 min pre-incubation of drug with liposomes; read-out: Lipase Inhibition IC50 μM (BMP)^g
quantity_kind: IC50 (µM)

molecule	unit_name	IC50
CCOC(=O)N1CCC(=C2c3ccc(Cl)cc3CCc3cccnc32)CC1	µM	21.8

(I) CCC(=O)O[C@@H](O[P@](=O)(CCCCc1ccccc1)CC(=O)N1C[C@H](C2CCCCC2)C[C@H]1C(=O)O)C(C)C
(II) COc1ccccc1OCCNCC(O)COc1cccc2[nH]c3ccccc3c12 (stereo not drawn)
(III) CN(C)CCCN1c2ccccc2Sc2ccc(Cl)cc21
(IV) C[C@]12CC[C@@H]3c4ccc(O)cc4C[C@@H](CCCCCCCCC[S+]([O-])CCCC(F)(F)C(F)(F)F)[C@H]3[C@@H]1CC[C@@H]2O (stereo partly drawn)
# rank_down: sort by IC50, max first Put the labels in the requested order and write them down.
II, IV, III, I
